assay: qHTS assay to test for compound auto fluorescence at 535 nm (green) in HEK293 cell free culture (AID 720682); settings: cell-free medium, green autofluorescence 485/535 nm, active compounds read high; series mostly up to 91.3 µM; also: % is scaled to controls: 0 for no effect and ±100 for the full control effect
Calls of active or inactive are those of the source. Calls follow the shape of the dose curve; as a rule, active = well fitted curve in the direction sought with a large enough effect in the repeat runs; inconclusive = weak or mixed curves; inactive = flat fitted curve, though single readings scatter.

smiles.repr	activity change
CC(=O)[C@@]1(O)CC[C@H]2[C@@H]3C[C@H](C)C4=CC(=O)CC[C@]4(C)[C@H]3CC[C@@]21C	inactive
CC(C)(C)c1cc(CCC(=O)OCC(COC(=O)CCc2cc(C(C)(C)C)c(O)c(C(C)(C)C)c2)(COC(=O)CCc2cc(C(C)(C)C)c(O)c(C(C)(C)C)c2)COC(=O)CCc2cc(C(C)(C)C)c(O)c(C(C)(C)C)c2)cc(C(C)(C)C)c1O	inactive
Cc1c(Cn2ccnc2)c2ccccc2n1CCC(=O)O	inactive
O=C1CCCCCO1	inactive

###

test: qHTS assay to test for compound auto fluorescence at 460 nm (blue) in HepG2 cells (AID 720687); conditions: autofluorescence 405/460 nm, 1 h; series mostly up to 91.3 µM; also: % is scaled to controls: 0 for no effect and ±100 for the full control effect
Activity calls are given as the source filed them. Calls come from the whole dose curve; as a rule, active = well fitted curve in the direction sought with a large enough effect in the repeat runs; inconclusive = weak or mixed curves; inactive = flat fitted curve, though single readings scatter.
endpoint: fluorescence, % of fluorescent control

Example cases with answers are listed next.
compound	fluorescence, % of fluorescent control
COCCOCCOCCOCCOC	inactive
CC(C)(C)c1ccc(OCC2CO2)cc1 (centres undefined)	inactive
O=C1[C@H](CC[C@H](O)c2ccc(F)cc2)[C@@H](c2ccc(O)cc2)N1c1ccc(F)cc1	inactive
CCCCCCCCCO	inactive
O=CNc1ccccc1	inactive
CC(C)(C)C(=O)OCOP(=O)(COCCn1cnc2c(N)ncnc21)OCOC(=O)C(C)(C)C	inactive

Hello, I would appreciate it if you could give fluorescence, % of fluorescent control for each entry below.
1. CCCCCC(CO)CCC (centres undefined)
2. CCCCCOC(=O)c1ccc(O)cc1
3. O=C(CCN1CCN2CCCC2C1)N1c2ccccc2Sc2ccc(Cl)cc21 (centres undefined)
4. O=C(O)COC(=O)Cc1ccccc1Nc1c(Cl)cccc1Cl

["inactive", "inactive", "inactive", "0.0219% [at 18.6 µM] (inactive)"]

###

Assay: qHTS assay to identify small molecule HDAC inhibitors (AID 1259364);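 also: wild-type HCT-116 cells with endogenous class I/II HDAC activity; top concentration of the series differs between compounds; % is scaled to controls: 0 for no effect and ±100 for the full control effect; nearly all actives have a fitted effect of over 45% in size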
Conditions: HCT-116 HDAC-Glo I/II luminescence, 2 h; series mostly up to 92.4 µM
Source text: U.S. Tox21 Program National Center for Advancing Translational Sciences [NCATS] NIH Chemical Genomics Center [NCGC] U.S. Environmental Protection Agency [EPA] National Institutes of Environmental Health Sciences [NIEHS] National Toxicology Program [NTP] U.S. Food and Drug Administration [FDA] Tox21 Assay Overview: Histone deacetylases (HDACs) are a group of epigenetic enzymes that regulate gene expression by histone deacetylation. […]
Results filed as inconclusive are left out. Calls of active or inactive are those of the source. The call rests on the fitted dose curve; in most records, active means well fitted inhibition curve with a large enough effect in the repeat runs; inconclusive means weak or mixed curves; inactive means flat fitted curve, though single readings scatter.
Give activity change, negative = inhibition for every item shown.

compound	activity change, negative = inhibition
NC[C@H]1O[C@H](O[C@H]2[C@H](O)[C@@H](O[C@H]3O[C@H](CO)[C@@H](O)[C@H](N)[C@H]3O)[C@H](N)C[C@@H]2N)[C@H](O)[C@@H](O)[C@@H]1O	-0.959% [at 8.39 µM] (inactive)
CCCCCCCCCCCCCCCCCBr	6.57% [at 19 µM] (inactive)
CCN(CCO)CCCC(C)Nc1ccnc2cc(Cl)ccc12 (centres undefined)	16.3% [at 8.39 µM] (inactive)

For the next question, use this compound.
Value of activity change, negative = inhibition reported for the compound O=C(CCN1CCN2CCCC2C1)N1c2ccccc2Sc2ccc(Cl)cc21 (centres undefined) is 3.91% [at 19 µM] (inactive)

###

experiment: qHTS assay to identify small molecule agonists of the vitamin D receptor (VDR) signaling pathway - cell viability counter screen (AID 743224); conditions: VDR-bla HEK293T viability, CellTiter-Glo luminescence, 16 h; series mostly up to 62.6 µM; also: % is scaled to controls: 0 for no effect and ±100 for the full control effect; nearly all actives have a fitted effect of over 50% in size
Records with an inconclusive call do not appear. Activity calls are given as the source filed them. Calls follow the shape of the dose curve; as a rule, active = well fitted cell-killing curve with a large enough effect in the repeat runs; inconclusive = weak or mixed curves, or effect the other way; inactive = no such curve, though single readings can be large or run the other way.
Hello, when you answer, please use one of the following outcomes: 1.0 = active, 0.0 = inactive

Hi team, can someone confirm the assay call for CC(C)CC=O ?
0.0

Hi, do you know how O=C(C(=O)c1ccc(Br)cc1)c1ccc(Br)cc1 came out in this test?
0.0

Which result was noted for this molecule in the test: O=C1CCCCCO1
0.0

###

target: Voltage-gated inwardly rectifying potassium channel KCNH2 (Homo sapiens) (UniProt Q12809); experiment: Human Ether-a-go-go-Related Gene (hERG) channel small molecule antagonists: fluorescence cell-based qHTS assay (AID 1671200); conditions: hERG-U2OS cells, FluxOR thallium flux fluorescence; series mostly up to 76.8 µM;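 also: hERG-expressing U2OS cells given a thallium stimulus after FluxOR II dye loading; % is scaled to controls: 0 for no effect and ±100 for the full control effect; nearly all actives have a fitted effect of over 50% in size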
Sequence (Q12809 whole entry, looked up): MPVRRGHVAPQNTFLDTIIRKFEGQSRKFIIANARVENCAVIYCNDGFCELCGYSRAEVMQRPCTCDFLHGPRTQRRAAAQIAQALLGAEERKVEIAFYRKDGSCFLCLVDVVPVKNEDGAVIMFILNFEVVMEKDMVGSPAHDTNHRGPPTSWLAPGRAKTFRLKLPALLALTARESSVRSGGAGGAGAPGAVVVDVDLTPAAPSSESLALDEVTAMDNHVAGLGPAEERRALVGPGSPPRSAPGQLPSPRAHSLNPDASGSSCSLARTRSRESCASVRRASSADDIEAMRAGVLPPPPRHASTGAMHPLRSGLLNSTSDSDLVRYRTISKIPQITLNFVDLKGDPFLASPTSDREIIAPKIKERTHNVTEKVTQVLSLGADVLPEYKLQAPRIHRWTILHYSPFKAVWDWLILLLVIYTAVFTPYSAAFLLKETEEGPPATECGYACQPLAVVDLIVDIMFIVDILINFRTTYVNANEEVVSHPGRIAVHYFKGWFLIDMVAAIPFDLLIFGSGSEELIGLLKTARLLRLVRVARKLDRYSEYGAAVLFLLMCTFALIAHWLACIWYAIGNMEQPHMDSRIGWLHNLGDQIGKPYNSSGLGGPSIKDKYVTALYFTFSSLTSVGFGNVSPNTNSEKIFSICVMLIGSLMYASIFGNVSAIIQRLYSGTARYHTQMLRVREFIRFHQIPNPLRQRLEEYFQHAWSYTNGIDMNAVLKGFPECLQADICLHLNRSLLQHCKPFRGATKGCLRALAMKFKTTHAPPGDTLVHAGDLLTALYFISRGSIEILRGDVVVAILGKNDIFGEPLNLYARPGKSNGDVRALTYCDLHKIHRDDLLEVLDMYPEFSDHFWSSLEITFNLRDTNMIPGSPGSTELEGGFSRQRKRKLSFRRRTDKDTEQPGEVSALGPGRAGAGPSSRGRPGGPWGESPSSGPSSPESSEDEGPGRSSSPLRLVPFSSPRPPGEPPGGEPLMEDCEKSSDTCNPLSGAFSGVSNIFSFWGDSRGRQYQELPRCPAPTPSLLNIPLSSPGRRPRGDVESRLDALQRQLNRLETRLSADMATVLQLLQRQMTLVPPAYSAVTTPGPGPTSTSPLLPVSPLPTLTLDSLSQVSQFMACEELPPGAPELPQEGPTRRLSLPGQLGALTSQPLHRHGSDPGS
Results filed as inconclusive are left out. Activity calls are given as the source filed them. Calls follow the shape of the dose curve; as a rule, active = well fitted inhibition curve with a large enough effect in the repeat runs; inconclusive = weak or mixed curves; inactive = flat fitted curve, though single readings scatter.

smiles.repr	outcome
CCOC(=S)SSC(=S)OCC	inactive
Cl/C(=C\n1cncn1)c1ccc(Cl)cc1Cl	inactive
O=C(O)/C=C/c1cnc[nH]1	inactive
COc1ccc(C(C)=O)cc1	inactive

###

assay: qHTS assay to identify small molecule agonists of the endoplasmic reticulum stress response signaling pathway (AID 1159516); conditions: ESRE-bla HeLa, ER stress beta-lactamase reporter, 5 h; series mostly up to 61 µM; also: % is scaled to controls: 0 for no effect and ±100 for the full control effect
Records with an inconclusive call do not appear. Calls of active or inactive are those of the source. Calls come from the whole dose curve; as a rule, active = well fitted activation curve with a large enough effect in the signal ratio in the repeat runs (not every such curve was filed as active); inconclusive = weak or mixed curves, or effect the other way; inactive = flat fitted curve, though single readings scatter; the % refers to the signal ratio.
Result category, one only: YES = active, NO = inactive

compound	discrete.label
Cc1ncsc1CCO	NO
Cc1cccc(C(C)(C)C)c1O	NO
CC(C)CCCC(C)CCO (stereo not drawn)	NO
CC(=O)N(O)CCCCCNC(=O)CCC(=O)N(O)CCCCCNC(=O)CCC(=O)N(O)CCCCCN	NO
Cc1cc(C)c(S(=O)(=O)O)cc1N=Nc1cc(S(=O)(=O)O)c2ccccc2c1O	NO

Identify the outcome logged in this assay for the compound shown: C=C(C)C(=O)OCCN(C)C
NO

Called result for CC1=CC(=O)/C(=C(/C)O)C(=O)O1
NO

Could you please tell me the result logged for Cc1nc2ccccc2n1Cc1ccc(Cl)cc1 in this assay?
NO

Hi team, can someone confirm the assay call for CC(C)c1ccccc1C(C)C ?
NO

Please state the recorded outcome for this compound: NC1CCN(c2nc3c(cc2F)c(=O)c(C(=O)O)cn3-c2ccc(F)cc2F)C1 (stereo not drawn)
NO

###

test: qHTS assay to identify small molecule agonists of the sonic hedgehog signaling (Shh) pathway (AID 1259368); conditions: NIH/3T3 Gli1-Luc reporter, luciferase, 24 h, active compounds read high; series mostly up to 92.4 µM;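 also: NIH/3T3-derived 3T3Gli1-Luc cells carrying a stable Gli1-driven firefly luciferase reporter; % is scaled to controls: 0 for no effect and ±100 for the full control effect; nearly all actives have a fitted effect of over 15% in size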
The source made the active and inactive calls. The call rests on the fitted dose curve.
endpoint: activity change

compound	activity change
Nc1nc(CC(=O)O)cs1	inactive
CCN(CC)CCOc1ccc2c(c1)C(=O)c1cc(OCCN(CC)CC)ccc1-2	inactive
COC(=O)C(C)=O	inactive
CCCCCCCCCCCCC(=O)O	inactive
NC1CCN(c2nc3c(cc2F)c(=O)c(C(=O)O)cn3-c2ccc(F)cc2F)C1 (configuration not stated)	inactive
O=C(C(=O)c1ccc(Br)cc1)c1ccc(Br)cc1	-0.0641% [at 18.9 µM] (inactive)
CC1=CC(=O)/C(=C(/C)O)C(=O)O1	inactive
Cn1c(NCCN(CCO)CCCc2ccc([N+](=O)[O-])cc2)cc(=O)n(C)c1=O	inactive
CCCCCC/C=C/C=O	inactive
CCOc1ccc(NC(=O)CC(C)=O)cc1	inactive

// each compound listed below needs its activity change
1. CCOC(=O)[C@H](CCc1ccccc1)N[C@H]1CCc2ccccc2N(CC(=O)O)C1=O
2. CCC(=O)OC(C)(C)C1CC=C(C)CC1 (configuration not stated)
3. Cc1ncsc1CCO
4. CC(=O)OCCc1ccccc1
5. O=C(c1ccc(O)cc1)c1ccc(O)cc1
6. FC(F)(F)C(F)(F)C(F)(F)C(F)(F)C(F)(F)C(F)(F)CCI
7. NC(N)=N/N=C/c1c(Cl)cccc1Cl

["inactive", "inactive", "inactive", "inactive", "inactive", "inactive", "inactive"]

###

assay: qHTS assay to identify small molecule that activate the aryl hydrocarbon receptor (AhR) signaling pathway - cell viability counter screen (AID 743086); conditions: HepG2-AhR-luc viability, CellTiter-Fluor, 24 h; series mostly up to 70.3 µM;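 also: HepG2 liver cells carrying the AhR DRE luciferase reporter; % is scaled to controls: 0 for no effect and ±100 for the full control effect; nearly all actives have a fitted effect of over 45% in size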
Results filed as inconclusive are left out. The source made the active and inactive calls. Calls come from the whole dose curve; as a rule, active = well fitted cell-killing curve with a large enough effect in the repeat runs; inconclusive = weak or mixed curves, or effect the other way; inactive = flat fitted curve, though single readings scatter.
endpoint: outcome

The examples below pair each entry with its known result.
smiles.repr	outcome
Nc1nc(N)c2nc(CNc3ccc(C(=O)N[C@@H](CCC(=O)O)C(=O)O)cc3)cnc2n1	inactive
C=CC[N+]1([C@H]2C[C@H]3[C@@H]4CC[C@H]5C[C@H](OC(C)=O)[C@@H](N6CCCCC6)C[C@]5(C)[C@H]4CC[C@]3(C)[C@H]2OC(=O)CC)CCCCC1	inactive
Cc1ccc(C(N)=O)cc1N	inactive
CCCCCCCCCCCCCCCC(=O)OC/C=C(C)/C=C/C=C(C)/C=C/C1=C(C)CCCC1(C)C	inactive
N=C(N=C(N)N)N1CCOCC1	inactive
C=CC(=O)OCCOC(=O)CCC(=O)O	inactive

Okay, now this molecule:
Reported outcome ( CCCc1ccccc1 ) = inactive
